src = PubChem BioAssay

# test: growth suppression of beta-catenin knockout HCT116, pilot screen, human colon tumor cells (AID 823);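 also: 0% = wells killed by 20 µM Hyamine and 100% = untreated DMSO cell wells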
# condition notes: CellTiter-Glo, 60 h, at 10 µM, hits give low values
Inconclusive results are not listed.
Recorded viability, one value per entry.
Give the value in % but do not write % after it.

Recorded viability, per entry:
CCOC(=O)c1ccc(NC(=O)NCCN2CCCCC2)cc1    105
CCN1CCc2c(sc(NC(=O)c3ccc(S(=O)(=O)N4CCOCC4)cc3)c2C(N)=O)C1    86.8
COCC(=O)Nc1cc(C)c2c(=O)oc3ccccc3c2n1    96
O=C(CN1c2cccc3cccc(c23)S1(=O)=O)NCc1ccc2c(c1)OCO2    89.2
COCCNC(=O)CS(=O)(=O)Cc1nc(-c2ccc(C)cc2)oc1C    95.1
O=C1C2CCCN2C(c2cccc(F)c2)N1c1cccc(Cl)c1 (stereo not given)    108
COc1ccc(NC(=O)CCS(=O)(=O)c2cccc3nonc23)c(OC)c1    96.2
COc1ccc(-n2nc(C(=O)N3CCC(C#N)CC3)c3c4ccccc4n(C)c3c2=O)cc1    92.2
CC(=O)Nc1ccc(S(=O)(=O)N2CCSCC2)cc1    98.6
CC1(C)CC(=O)C=C(NCCN2CCN(C(=O)Nc3ccc(Cl)cc3)CC2)C1    99.2

Find the recorded viability belonging to COc1ccc(NC(=O)c2cc3c(=O)n(C)c4ccccc4c3n2C)cc1OC and report it.
93.8

# viability lookup, item CCOC(=O)CNc1c(N2CCN(c3ccccn3)CC2)c(=O)c1=O
110

Given the compound CC(C)COC(=O)c1cc(=O)[nH]c2ccccc12 , what is its reported viability?
87.4

Which viability reading was recorded for the compound Cc1ccccc1NS(=O)(=O)c1cccc(-c2nnc(-c3ccccc3)o2)c1 ?
93.6

viability lookup needed for O=C(NCc1ccccn1)c1cc2ccccn2n1 , thanks.
104

# get_value(readout='viability', item= CSc1oc(-c2ccc(F)cc2)nc1S(=O)(=O)c1ccccc1 )
97.2

Need viability, item CCNS(=O)(=O)c1ccc(NC(=O)c2cccnc2)cc1
95

Look at this compound and give its reported viability. CC(C)N1C(=O)CCC1C(=O)NCc1ccccc1Cl (stereo not given)
96

Recorded viability of COc1cccc(C2CC(c3ccc(C(C)C)cc3)n3nc(N)nc3N2)c1 (stereo not given) , please.
97.1

Tell me the measured viability of Cn1cccc1Cc1nnc(SCC(=O)NCc2ccccc2Cl)n1-c1ccc(F)cc1 , please.
87

Reported viability, compound O=C(Nc1sc2c(c1C(=O)NCC1CCCO1)CCCC2)c1cccs1 (stereo not given) : ____
85.9

Given the entry COc1ccc(C(=O)N2CCC(C(=O)Nc3ccc(OC)c(OC)c3)CC2)cc1 , report its measured viability.
89.7

* * *

Overview of recorded inhibition for various compounds
# test: inhibitors of the yeast RAM network, pilot screen, dse1pr::URA3 reporter, 5-FOA selection (AID 869);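 also: 0% = DMSO wells with no growth and 100% = 10 µM 1-NA-PP1 with full growth; RAM network block rescues cells from 5-FOA so hits raise OD615 growth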
# condition notes: S. cerevisiae dse1pr::URA3 5-FOA growth, OD615, 2 d; at 10 µM; hits give high values; strain carries analog-sensitive mutant Cbk1 kinase
The source made the active and inactive calls.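 Rule for the calls: active = inhibition over a set limit, the all-compound mean plus 3 SD, in both replicate runs; inconclusive = over that limit in just one replicate run; inactive = at or under that limit in both runs.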

COc1cc(C(c2sc3nc(C)nn3c2O)N2CC(C)OC(C)C2)cc(OC)c1OC (stereo not given)    0.73% (inactive)
Cn1nc(-c2ccc(Cl)cc2)c2cc(C(=O)NCCCN3CCOCC3)sc21    -0.235% (inactive)
O=C(Cn1nc(-c2ccccc2)ccc1=O)Nc1ccc(N2CCN(C(=O)c3ccccc3)CC2)cc1    2.17% (inactive)

Given the entry COc1cc(NC(=O)C2CCCN2C(=O)C2CCC(C)CC2)cc(OC)c1OC (stereo not given) , report its measured inhibition.
2.65% (inactive)

# query: inhibition of entry CCc1nnc(NC(=O)c2ccc(N3C(=O)CCC3=O)cc2)s1
1.32% (inactive)

Bench note: what inhibition did CCCOCCOC(=O)C1=C(C)NC(=O)NC1c1cc(Cl)c(O)c(OC)c1 (stereo not given) show?
0.265% (inactive)

Record request: inhibition value, item CCCCn1c(CNC(=O)c2cccs2)nc2ccccc21
-0.215% (inactive)

Which inhibition reading was recorded for the compound CCOC(=O)N1CCN(c2c(Nc3ccc4c(c3)OCCO4)c(=O)c2=O)CC1 ?
1.1% (inactive)

// returns reported inhibition for input CC(NC(=O)C1CCCN(S(=O)(=O)c2cnc[nH]2)C1)c1ccccc1 (stereo not given)
-0.19% (inactive)

Entry COCCn1c(C)cc(C(=O)CSc2nnc3ccccn23)c1C : reported inhibition = ?
0.76% (inactive)

Consider the compound c1ccc2c(c1)nc1n2CCN1CCNC1CCCCC1 and give its measured inhibition.
0.065% (inactive)

// lookup inhibition for O=C(COc1ccccc1)Nc1nnc(-c2ccc(Cl)s2)o1
2.67% (inactive)

What value of inhibition has been recorded for this entry: CCOc1ccccc1C1C(C(=O)Nc2ccccc2OC)=C(C)Nc2nc(CCCO)nn21 (stereo not given)
1.01% (inactive)

Bench note: what inhibition did CC1CCN(C(=O)CN2C(=O)C(=O)c3ccccc32)CC1 show?
1.33% (inactive)

What does the record list as inhibition for CCCN1Cc2cccc(C(=O)N3CCN(c4cc(Cl)ccc4C)CC3)c2C1=O ?
0.375% (inactive)

# inhibition lookup, item COc1ccc(C2CC(c3ccccc3C)n3nc(N)nc3N2)cc1 (stereo not given)
2.3% (inactive)

Entry CCCOc1ccc(N2C(=O)CC(N3CCN(c4ccccc4OC)CC3)C2=O)cc1 (stereo not given) has what inhibition?
2.04% (inactive)

Look up inhibition for this compound: O=C(O)CCC(=O)c1ccc2c(c1)OCCO2
1.79% (inactive)

inhibition for COc1ccc(C(=O)N2CCN(c3ccc(C)c(C)c3)CC2)cc1OC ?
0.21% (inactive)

Which inhibition value is on record for O=C1c2ccccc2C(Nc2ccc3c(c2)OCCO3)N1c1ccc(Cl)cn1 (stereo not given) ?
1.83% (inactive)

I'd like to know its inhibition. The compound in question is CCC(=O)c1ccc(OCC(O)CN2C(=O)NC(C)(C)C2=O)cc1 (stereo not given)
1.6% (inactive)

I'd like to know its inhibition. The compound in question is COc1ccc(CN2C(=O)CCC2(C)C(=O)NC2CCCC2)c(OC)c1 (stereo not given)
0.71% (inactive)

Quick check: inhibition of C=CCNC(=O)C1CC(=O)N(c2ccc(Br)cc2)C1 (stereo not given) ?
0.655% (inactive)

Quick one: inhibition for CCN(CC)c1ccc(NS(=O)(=O)c2ccc3c(c2)oc(=O)n3C)c(C)c1 ?
1.33% (inactive)

I have this compound here, COc1cc(C2NC(=O)N(C)C3=C2C(=O)CCC3)cc(OC)c1OC (stereo not given) , and I need its recorded inhibition.
2.73% (inactive)

Can you share its inhibition? I mean this compound: CSc1nnc2c(n1)OC(c1ccc(C(=O)O)cc1)N(C(C)=O)c1ccccc1-2 (stereo not given)
1.57% (inactive)

* * *

# test: RAM signaling pathway blockade in yeast – S. cerevisiae, Pdr1DBD-CYC8 efflux-inhibited sensitized strain, primary screen (AID 1298);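 also: 0% = DMSO untreated cells without growth and 100% = 10 µM 1-NA-PP1 full growth; higher means more yeast growth rescued from 5-FOA killing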
# condition notes: S. cerevisiae cbk1-as DSE1-URA3 strain, 5-FOA growth OD615, 2 d; at 50 µM; hits give high values
The source made the active and inactive calls.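 The calls were made as follows: active = RAM network inhibition above 8.4% in each of two replicates, 3 SD over the compound average; inconclusive = above 8.4% inhibition in only one replicate; inactive = 8.4% inhibition or less in each replicate.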
experimental endpoint: RAM network inhibition

Use the examples below as a reference point.
O=C(Nc1nnc(-c2ccco2)o1)C1CCCCC1    0.58% (inactive)
CCOC(=O)c1c(C)nc(-c2ccccc2)nc1NC(C)=O    7.29% (inactive)
COc1ccc(-c2nc(CS(=O)CC(=O)NCc3cccnc3)c(C)o2)cc1 (stereo unspecified)    1.62% (inactive)
CCN1CCN(CCNC(=O)C2CCN(Cc3nc(-c4ccc(Cl)cc4)oc3C)CC2)CC1    3.67% (inactive)
O=C(CCCn1c(=O)[nH]c2ccccc2c1=O)N1CCN(c2ccccn2)CC1    3.32% (inactive)

# ---- query molecule ----
I would be grateful if you could share the reported RAM network inhibition for CCN(c1ccccc1)c1cc(C)nc2ncnn12 .
4.57% (inactive)

* * *

# test: inhibitors of the yeast RAM network, pilot screen, dse1pr::URA3 reporter, 5-FOA selection (AID 869);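 also: 0% = DMSO wells with no growth and 100% = 10 µM 1-NA-PP1 with full growth; RAM network block rescues cells from 5-FOA so hits raise OD615 growth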
# condition notes: S. cerevisiae dse1pr::URA3 5-FOA growth, OD615, 2 d; at 10 µM; hits give high values; strain carries analog-sensitive mutant Cbk1 kinase
experimental endpoint: inhibition (%)
The reply should be a number in %, with the unit left off.

CCCCn1c(=O)cc(N2CCOCC2)[nH]c1=O    1.04

Given Cc1nc(Cc2nnc(SCc3nc(N)nc(Nc4ccccc4C)n3)o2)cs1 , state its recorded inhibition.
0.85

Which inhibition value belongs to O=C(Nc1nc2c(Cl)ccc(Cl)c2s1)c1ccco1 ?
1.41

Reported inhibition for Cc1cc(NC(=O)COC(=O)c2ccc(F)c(S(=O)(=O)N3CCOCC3)c2)no1 : what is it?
1.03

Name the reported inhibition value associated with the compound CN(C)Cc1nc2c([nH]1)c(=O)n(C)c(=O)n2C
1

What measured inhibition goes with c1cncc(-c2nc3ccccn3c2Nc2ccc3c(c2)OCCO3)c1 ?
1.04

For the compound shown here, COc1cccc(N2CCN(C(=O)C3CCCN(S(=O)(=O)c4cnc[nH]4)C3)CC2)c1 (stereo not drawn) , give the reported inhibition.
-0.27

Which measured inhibition value corresponds to Clc1ccc(C2CC(c3cccs3)n3ncnc3N2)cc1Cl (stereo not drawn) ?
0.94
